Each entry below carries its reported melting point.

Reference set (3 entries):
O=C(O)CC1(CC(=O)Nc2nccs2)CCCCC1 = 175 to 177 °C
Cc1csc(NC(=O)C2CCCNC2)n1 (configuration not stated) = 164 to 166 °C
O=C(O)Cn1nnc2ccccc2c1=O = 145 to 150 °C

Query block: Consider the molecule O=C(O)CC1C=CS(=O)(=O)C1 (configuration not stated) and give its measured melting point.
Result block: 81 to 83 °C

Query block: Consider the molecule "ClCc1nnnn1-c1ccccc1" and give its measured melting point.
Result block: 45 to 73 °C

Query block: Consider the molecule "O=C1c2ccccc2C(=O)N1CCc1nn[nH]n1" and give its measured melting point.
Result block: 256 to 258 °C

Query block: Consider the molecule "Cc1c(O)cccc1OCCN1CCOCC1" and give its measured melting point.
Result block: 117 to 119 °C

Query block: Consider the molecule "c1ccc(COc2ccc3[nH]ncc3c2)cc1" and give its measured melting point.
Result block: 175 to 177 °C

Query block: Consider the molecule "N#Cc1cccc(-n2cccn2)c1" and give its measured melting point.
Result block: 61 to 63 °C

Query block: Consider the molecule "CN1C(=O)C(=O)c2ccc(F)cc21" and give its measured melting point.
Result block: 137 to 139 °C
